B1: MLL5 (parent)
chain: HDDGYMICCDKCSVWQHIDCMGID

Variants of: B1
ASSAY_TEXT: protein stability index of a GFP-peptide fusion (GPS, HEK-293T) (PSI 1-6); higher = more stable;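 note: lentivirally expressed fusions sorted by FACS into six bins by GFP to DsRed ratio, PSI derived from sequencing read proportions per bin multiplied by bin number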
MEASUREMENT_CONDITIONS: c terminus: a fixed tail appended
Would you mind classing the entries by protein stability index? Ranges: low-valued = under 2, mid-valued = from 2 up to 3, high-valued = 3 and over

{"columns": ["MUTATION_STRING", "ASSIGNED_CATEGORY"],
 "data": [
  ["Q16A", "low-valued"],
  ["M6R", "high-valued"],
  ["I7D", "high-valued"],
  ["D24N", "mid-valued"],
  ["Y5H", "high-valued"],
  ["K11C", "high-valued"],
  ["H1V", "mid-valued"],
  ["C20M", "low-valued"],
  ["D10G", "low-valued"],
  ["I18A", "mid-valued"],
  ["D24I", "mid-valued"],
  ["Q16P", "high-valued"],
  ["M6Q", "mid-valued"],
  ["C9H", "mid-valued"],
  ["I23L", "mid-valued"],
  ["I23E", "high-valued"],
  ["H1R", "mid-valued"],
  ["I7N", "high-valued"],
  ["S13K", "mid-valued"],
  ["H1W", "mid-valued"],
  ["W15S", "high-valued"],
  ["Q16N", "mid-valued"],
  ["C12L", "low-valued"],
  ["H17P", "mid-valued"],
  ["D2C", "low-valued"],
  ["I23S", "mid-valued"],
  ["C12P", "mid-valued"],
  ["C20T", "mid-valued"],
  ["Q16H", "mid-valued"],
  ["Q16Y", "low-valued"],
  ["I23M", "mid-valued"],
  ["C9R", "mid-valued"],
  ["Y5P", "mid-valued"],
  ["D24H", "mid-valued"],
  ["M6T", "mid-valued"],
  ["D3K", "low-valued"],
  ["M21L", "mid-valued"],
  ["G22L", "low-valued"],
  ["C20W", "mid-valued"],
  ["H17E", "mid-valued"],
  ["W15K", "high-valued"],
  ["D19Y", "low-valued"]
]}
